assay: Stability of (Z)-Endoxifen in acetone (HPLC peak table over time); assay type: physicochemical; details: acetone, 40° C., 24 hr
readout kind: HPLC peak RT 22.76, RRT 1.40 (%)
// return numeric value only (unit: %, not printed)

Query block: Param item = CC/C(=C(\c1ccc(O)cc1)c1ccc(OCCNC)cc1)c1ccccc1 [(Z)-endoxifen] ; retrieve measured HPLC peak RT 22.76, RRT 1.40.
Result block: 0.02

====

experiment: Solubility testing of (Z)-endoxifen in single solvents; assay type: physicochemical; conditions: 2-propanol, 25 °C, organic solvent or mixture, thermodynamic from solid, solvent 2-propanol; room temperature; read-out: Solubility at RT
readout kind: solubility at 15 min (µg/mL)
Kindly provide the numeric value in µg/mL only, without the unit symbol.

Query block: For CC/C(=C(\c1ccc(O)cc1)c1ccc(OCCNC)cc1)c1ccccc1 [(Z)-endoxifen] , what is its reported solubility at 15 min?
Result block: 10000
